Source: patent US20220106398A1

Target: T1, mouse His6-GITR (mouse, UniProt O35714 20-153)
T1 construct: His6-tagged recombinant protein; also called mGITR-His; mouse GITR-His
T1 sequence: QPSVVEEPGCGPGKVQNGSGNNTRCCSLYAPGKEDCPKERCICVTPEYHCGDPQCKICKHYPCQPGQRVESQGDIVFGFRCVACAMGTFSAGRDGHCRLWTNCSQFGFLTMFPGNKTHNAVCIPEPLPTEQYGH
Experiment: ELISA, scFv periplasmic extract on coated His6-GITR
Catalogue of mGITR-His/BKG values

>  <binder>
GITR-Mab-46 scFv (scFv, V domains shown, scFv in periplasmic extract, V5 tag) VH: QVQLVQSGAEVKKPGASVKVSCKASGGSFSNYAINWVRQAPGQGLEWMGWMNPYSGNTGYAQKFQGRVTMTRDTSTSTVYMELSSLRSEDTAVYYCAREITANYYYGMDVWGQGTKVTVSS VL: DIQMTQSPSSLSASVGDRVTITCQASQDISNYLNWYQQKPGKAPKLLIYEASVLESGVPSRFSGSGSGTDFTLTISSLQPEDFATYYCQQSYTTQYTFGQGTKVEIK

>  <unit-descriptor>
fold over background

>  <mGITR-His/BKG>
6.5

$$$$
>  <binder>
GITR-Mab-21 scFv (scFv, V domains shown, scFv in periplasmic extract, V5 tag) VH: EVQLLESGGGLVQPGGSLRLSCAASGFTFSNHYMSWVRQAPGKGLEWVAVIALDGSYRYYADSVKGRFTISRDNSKNTLYLQMNSLRAEDTAVYYCARVGPGGMDVRGQGTTVTVSS VL: DIQMTQSPSSLSASVGDRVTITCQASQDISNYLNWYQQKPGKAPKLLIYAASSLQSGVPSRFSGSGSGTDFTLTISSLQPEDFATYYCQQSYNSPRVYTFGQGTKVEIK

>  <unit-descriptor>
fold over background

>  <mGITR-His/BKG>
1.2

$$$$
>  <binder>
GITR-Mab-24 scFv (scFv, V domains shown, scFv in periplasmic extract, V5 tag) VH: QVQLVQSGAEVKKPGASVKVSCKASGGTFNNYAINWVRQAPGQGLEWMGTINPRDGDTTYAQKFQGRVTMTRDTSTSTVYMELSSLRSEDTAVYYCARVGYYGSGSYYSYYGMDVWGQGTTVTVSS VL: DIQMTQSPSSLSASVGDRVTITCRASQNITNWLAWYQQKPGKAPKLLIYAASSLQSGVPSRFSGSGSGTDFTLTISSLQPEDFATYYCQQAYSFPWTFGQGTKVEIK

>  <unit-descriptor>
fold over background

>  <mGITR-His/BKG>
1.7

$$$$
>  <binder>
GITR-Mab-3 scFv (scFv, V domains shown, scFv in periplasmic extract, V5 tag) VH: QVQLVQSGAEVKKPGASVKVSCKASGYTFTSYDINWVRQAPGQGLEWMGWISGYNGNTNYAQKFQGRVTMTRDTSTSTVYMELSSLRSEDTAVYYCARSHEYYYYYGMDVWGQGTLVTVSS VL: EIVMTQSPATLSVSPGERATLSCRASQSVSSSYLAWYQQKPGQAPRLLIYGASTRATGIPARFSGSGSGTEFTLTISSLQSEDFAVYYCQQYYTTPFTFGPGTKVDIK

>  <unit-descriptor>
fold over background

>  <mGITR-His/BKG>
1

$$$$
>  <binder>
GITR-Mab-9 scFv (scFv, V domains shown, scFv in periplasmic extract, V5 tag) VH: QVQLVQSGAEVKKPGASVKVSCKASGHTFTSQYMHWVRQAPGQGLEWVGVINPNDGSTSYAQKFQGRVTMTRDTSTSTVYMELSSLRSEDTAVYYCARDGAYYYDSSGYYRSSNFDYWGQGTLVTVSS VL: DIQMTQSPSSLSASVGDRVTITCQASQDIGNYLNWYQQKPGKAPKLLIYGASNLETGVPSRFSGSGSGTDFTLTISSLQPEDFATYYCQQGYSFPLTFGQGTKVEIK

>  <unit-descriptor>
fold over background

>  <mGITR-His/BKG>
1.1

$$$$
>  <binder>
GITR-Mab-43 scFv (scFv, V domains shown, scFv in periplasmic extract, V5 tag) VH: QVQLVQSGAEVKKPGASVKVSCKASGYTFTSHDIDWVRQAPGQGLEWMGWMNPNNGNTVYAQRFQGRVTMTRDTSTSTVYMELSSLRSEDTAVYYCARWKVYSGSYYGGAGYFDLWGRGTLVTVSS VL: DIQMTQSPSSLSASVGDRVTITCRASQSISSYLNWYQQKPGKAPKLLIYRASHLEGGVPSRFSGSGSGTDFTLTISSLQPEDFATYYCQQADSLPLTFGQGTKVEIK

>  <unit-descriptor>
fold over background

>  <mGITR-His/BKG>
14.6

$$$$
>  <binder>
GITR-Mab-1 scFv (scFv, V domains shown, scFv in periplasmic extract, V5 tag) VH: QVQLVQSGAEVKKPGASVKVSCKASGYTFTNYHLHWVRQAPGQGLEWMGMINPNDGSTTYAQKFQGRVTMTRDTSTSTVYMELSSLRSEDTAVYYCARSTYYYDSSGYYYYYYGMDVWGQGTTVTVSS VL: EIVMTQSPATLSVSPGERATLSCRASQSVYSNYLAWYQQKPGQAPRLLIYGASTRATGIPARFSGSGSGTEFTLTISSLQSEDFAVYYCQQYHSYPLTFGGGTKVEIK

>  <unit-descriptor>
fold over background

>  <mGITR-His/BKG>
1.1

$$$$
>  <binder>
GITR-Mab-33 scFv (scFv, V domains shown, scFv in periplasmic extract, V5 tag) VH: EVQLLESGGGLVKPGGSLRLSCAASGFMFSSYSMNWVRQAPGKGLEWVSYISGNSGYTNYADSVKGRFTISRDDSKNTLYLQMNSLKTEDTAVYYCARRLHGMDVWGQGTTVTVSS VL: DIQMTQSPSSLSASVGDRVTITCRASQSISTWLAWYQQKPGKAPKLLIYDASNLETGVPSRFSGSGSGTDFTLTISSLQPEDFATYYCQQAYRFPVAFGGGTKVEIK

>  <unit-descriptor>
fold over background

>  <mGITR-His/BKG>
1

$$$$
>  <binder>
GITR-Mab-31 scFv (scFv, V domains shown, scFv in periplasmic extract, V5 tag) VH: QVQLVQSGAEVKKPGSSVKVSCKASGGTFSSYAISWVRQAPGQGLEWMGGIIPISSATSIPQKFQGRVTITADESTSTAYMELSSLRSEDTAVYYCARSYDSRYYGMDVWGQGTTVTVSS VL: EIVMTQSPATLSVSPGERATLSCRASQTVGSRYLAWYQQKPGQAPRLLIYGASTRATGIPARFSGSGSGTEFTLTISSLQSEDFAVYYCQQYYSTPWTFGQGTRLEIK

>  <unit-descriptor>
fold over background

>  <mGITR-His/BKG>
1.2

$$$$
>  <binder>
GITR-Mab-19 scFv (scFv, V domains shown, scFv in periplasmic extract, V5 tag) VH: QVQLVQSGAEVKKPGASVKVSCKASGYTFTSYDINWVRQAPGQGLEWVGIINPSGGSTSYAQKFQGRVTMTRDTSTSTVYMELSSLRSEDTAVYYCARASSGGYYYYYGMDVWGQGTTVTVSS VL: DIQMTQSPSSLSASVGDRVTITCRASQDIVNWLAWYQQKPGKAPKLLIYAASSLQSGVPSRFSGSGSGTDFTLTISSLQPEDFATYYCQQYYSYPLTFGQGTRLEIK

>  <unit-descriptor>
fold over background

>  <mGITR-His/BKG>
1.3

$$$$
